# credit: the supplement of paper PMC12667976

B1: library; numbered along this chain (parent)
chain: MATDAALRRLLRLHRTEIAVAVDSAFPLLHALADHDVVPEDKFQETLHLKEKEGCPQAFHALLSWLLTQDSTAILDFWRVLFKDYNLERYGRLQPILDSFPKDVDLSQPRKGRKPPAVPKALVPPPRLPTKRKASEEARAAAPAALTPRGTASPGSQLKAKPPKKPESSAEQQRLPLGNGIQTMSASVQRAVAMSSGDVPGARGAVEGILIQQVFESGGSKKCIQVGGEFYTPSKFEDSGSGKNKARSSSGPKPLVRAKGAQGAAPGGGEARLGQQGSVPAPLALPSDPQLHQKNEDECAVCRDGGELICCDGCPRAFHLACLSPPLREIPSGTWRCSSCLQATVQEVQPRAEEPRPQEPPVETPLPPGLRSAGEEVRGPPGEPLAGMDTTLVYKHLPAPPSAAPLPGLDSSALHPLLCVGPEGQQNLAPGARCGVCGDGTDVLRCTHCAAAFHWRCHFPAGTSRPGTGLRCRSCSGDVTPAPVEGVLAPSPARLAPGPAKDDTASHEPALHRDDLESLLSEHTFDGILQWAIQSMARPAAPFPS

# Variants of: B1
# experiment.notes: AIRE transcriptional activation functional score (insulin promoter-GFP; nonsense median 0, synonymous median 1) (normalised score); higher = higher AIRE activity (more reporter activation)
# condition.set: with insulin promoter-GFP reporter in HEK293
measured.endpoint: AIRE transcriptional activation functional score

Some variants with recorded AIRE transcriptional activation functional score:
mutation: P350R
value: 1.18
//
mutation: A21M
value: 0.432
//
mutation: C322L
value: 0.951
//
mutation: Q189Y
value: 0.0452
//
mutation: E375F
value: 1.55
//
mutation: A461W
value: 1.01

Hey, can you go through the list below and give me AIRE transcriptional activation functional score for every item?
1. P509I
2. A496T
3. P331W
4. A6N
5. P499G

Ans.
1. 1.21
2. 0.81
3. 1.26
4. -0.00395
5. 1.31

Hey, can you go through the list below and give me AIRE transcriptional activation functional score for every item?
1. R8I
2. P109Y
3. P509H
4. A493R

Ans.
0.433
0.732
0.506
1.15
